# test_system: CYP3A4 (Homo sapiens)
# Sequence (P08684 whole entry): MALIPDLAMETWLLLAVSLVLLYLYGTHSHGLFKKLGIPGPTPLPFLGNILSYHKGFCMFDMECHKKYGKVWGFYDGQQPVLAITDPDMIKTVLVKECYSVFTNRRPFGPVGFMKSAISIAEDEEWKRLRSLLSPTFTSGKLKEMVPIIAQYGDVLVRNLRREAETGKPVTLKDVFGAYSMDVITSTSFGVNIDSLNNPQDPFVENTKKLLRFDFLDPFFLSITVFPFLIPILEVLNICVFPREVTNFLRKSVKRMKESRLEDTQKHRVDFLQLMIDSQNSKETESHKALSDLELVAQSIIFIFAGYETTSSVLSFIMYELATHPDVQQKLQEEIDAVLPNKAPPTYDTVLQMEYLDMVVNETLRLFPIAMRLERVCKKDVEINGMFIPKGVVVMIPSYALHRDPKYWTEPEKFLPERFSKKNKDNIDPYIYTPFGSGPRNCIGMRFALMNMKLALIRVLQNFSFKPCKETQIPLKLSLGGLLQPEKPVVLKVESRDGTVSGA
# protocol: Phase 1 interaction study, sotorasib with multiple doses of rifampin (strong CYP3A4 inducer)
# Format: in vivo
# Set-up: from tissue; host or cells: in vivo, healthy human subjects (liver or gut enzyme)
# condition_label: human, plasma, 960 mg

compound | AUC(0-inf)
C=CC(=O)N1CCN(c2nc(=O)n(-c3c(C)ccnc3C(C)C)c3nc(-c4c(O)cccc4F)c(F)cc23)[C@@H](C)C1 (atropisomer, axis not shown; (M)) | 25600 ng·h/mL

====

# protocol: Phase 1 interaction study, sotorasib with omeprazole, fasted conditions
# Format: in vivo, human
# condition_label: human, plasma, 960 mg
experimental_readout: AUC(0-inf) (ng·h/mL)

compound | experimental_readout | number
C=CC(=O)N1CCN(c2nc(=O)n(-c3c(C)ccnc3C(C)C)c3nc(-c4c(O)cccc4F)c(F)cc23)[C@@H](C)C1 (atropisomer, axis not shown; (M)) [sotorasib] | AUC(0-inf) | 29300

====

# protocol: clinical
# condition_label: human, in vivo, oral, 960 mg

compound | Tmax
C=CC(=O)N1CCN(c2nc(=O)n(-c3c(C)ccnc3C(C)C)c3nc(-c4c(O)cccc4F)c(F)cc23)[C@@H](C)C1 (atropisomer, axis not shown; (M)) | 4 h

====

# test_system: UniProtKB P08684
# protocol: Phase 1 interaction study, sotorasib with multiple doses of rifampin (strong CYP3A4 inducer)
# Type: in vivo
# Parameters: from tissue; host or cells: in vivo, healthy human subjects (liver or gut enzyme)
# condition_label: human, plasma, 960 mg
experimental_readout: Cmax

compound | experimental_readout | result
C=CC(=O)N1CCN(c2nc(=O)n(-c3c(C)ccnc3C(C)C)c3nc(-c4c(O)cccc4F)c(F)cc23)[C@@H](C)C1 (atropisomer, axis not shown; (M)) | Cmax | 6350 ng/mL

====

# test_system: P-gp (Homo sapiens)
# Sequence (P08183 whole entry): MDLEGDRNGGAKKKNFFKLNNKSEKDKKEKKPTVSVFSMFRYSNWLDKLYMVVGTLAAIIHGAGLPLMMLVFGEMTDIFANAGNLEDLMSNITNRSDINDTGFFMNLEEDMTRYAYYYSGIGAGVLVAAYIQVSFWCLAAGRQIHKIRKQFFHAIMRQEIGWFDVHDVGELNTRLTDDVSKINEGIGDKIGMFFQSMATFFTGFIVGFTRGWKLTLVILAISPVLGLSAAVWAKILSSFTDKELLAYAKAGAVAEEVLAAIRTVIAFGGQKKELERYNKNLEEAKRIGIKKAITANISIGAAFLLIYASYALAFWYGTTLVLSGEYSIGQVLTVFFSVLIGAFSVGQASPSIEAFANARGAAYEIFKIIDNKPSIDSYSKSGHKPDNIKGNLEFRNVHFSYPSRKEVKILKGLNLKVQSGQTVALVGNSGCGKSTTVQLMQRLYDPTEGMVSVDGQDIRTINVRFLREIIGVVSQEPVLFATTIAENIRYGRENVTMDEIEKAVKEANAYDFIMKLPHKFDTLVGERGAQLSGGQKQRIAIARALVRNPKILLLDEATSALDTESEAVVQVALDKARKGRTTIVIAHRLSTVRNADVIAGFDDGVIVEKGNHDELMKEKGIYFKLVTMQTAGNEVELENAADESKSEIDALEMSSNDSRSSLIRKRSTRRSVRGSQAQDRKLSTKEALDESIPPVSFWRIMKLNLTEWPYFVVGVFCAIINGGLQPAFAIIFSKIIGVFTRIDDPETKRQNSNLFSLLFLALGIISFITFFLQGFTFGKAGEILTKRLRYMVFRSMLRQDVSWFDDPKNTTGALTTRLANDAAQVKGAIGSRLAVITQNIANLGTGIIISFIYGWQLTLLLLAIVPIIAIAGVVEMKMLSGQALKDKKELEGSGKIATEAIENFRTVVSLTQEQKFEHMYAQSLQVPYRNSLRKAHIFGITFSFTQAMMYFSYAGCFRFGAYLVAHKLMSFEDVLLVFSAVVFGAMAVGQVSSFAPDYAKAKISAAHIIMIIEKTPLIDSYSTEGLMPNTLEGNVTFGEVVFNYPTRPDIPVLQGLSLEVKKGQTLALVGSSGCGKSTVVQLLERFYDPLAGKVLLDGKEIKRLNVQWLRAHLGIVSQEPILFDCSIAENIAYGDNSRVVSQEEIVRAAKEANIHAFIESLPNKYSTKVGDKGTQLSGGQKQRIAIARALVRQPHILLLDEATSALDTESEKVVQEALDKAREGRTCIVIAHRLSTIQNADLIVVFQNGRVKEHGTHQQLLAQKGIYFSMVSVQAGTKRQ
# protocol: clinical
# condition_label: plasma, 0.5 mg
experimental_readout: Cmax

smiles_code | result
C[C@H]1O[C@@H](O[C@H]2[C@@H](O)C[C@H](O[C@H]3[C@@H](O)C[C@H](O[C@H]4CC[C@@]5(C)[C@H](CC[C@@H]6[C@@H]5C[C@@H](O)[C@]5(C)[C@@H](C7=CC(=O)OC7)CC[C@]65O)C4)O[C@@H]3C)O[C@@H]2C)C[C@H](O)[C@@H]1O | 1.9 ng/mL
